target: Cytochrome P450 3A4 (Homo sapiens) (UniProt P08684); experiment: qHTS Assay for Activators of Cytochrome P450 3A4 (AID 885); conditions: recombinant CYP3A4, Luciferin-PPXE luminescence, 60 min; series mostly up to 57.1 µM; further: nearly all actives have a fitted effect of over 65% in size
Sequence (P08684 whole entry, looked up): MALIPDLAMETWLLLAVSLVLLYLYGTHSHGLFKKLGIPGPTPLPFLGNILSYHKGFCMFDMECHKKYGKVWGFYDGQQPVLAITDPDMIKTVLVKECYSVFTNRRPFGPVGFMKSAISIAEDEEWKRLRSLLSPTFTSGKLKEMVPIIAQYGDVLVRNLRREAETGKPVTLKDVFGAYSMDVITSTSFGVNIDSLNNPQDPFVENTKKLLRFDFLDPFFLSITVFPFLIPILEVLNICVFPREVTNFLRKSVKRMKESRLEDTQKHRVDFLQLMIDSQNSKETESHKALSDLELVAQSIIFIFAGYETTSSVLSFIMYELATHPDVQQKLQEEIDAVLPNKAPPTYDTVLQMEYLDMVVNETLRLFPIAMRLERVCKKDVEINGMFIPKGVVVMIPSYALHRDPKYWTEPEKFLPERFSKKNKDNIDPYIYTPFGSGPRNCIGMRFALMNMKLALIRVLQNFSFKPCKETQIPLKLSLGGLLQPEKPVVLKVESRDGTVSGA
The source made the active and inactive calls. The call rests on the fitted dose curve; in most records, active means well fitted activation curve with a large enough effect; inconclusive means small, poorly fitted or top-dose-only effect; inactive means no such curve, though single readings can be large or run the other way.
One label from this list, please: active, inactive

Answered examples (2):
Check the results log: what was the call for CS(=O)(=O)N1CCC[C@@]2(CCN(c3ccncc3)C2)C1 ? inactive

What call does the record list for O=C(c1cccc(F)c1)N1CCC2(CC1)CN(c1ncccn1)C2 ? active

Next:
Tell me the recorded outcome of this test for CN(C)c1ccc(-c2ccc3ncnc(NCc4ccccc4)c3c2)cc1 . inactive

Can you look up the reported call for Cc1noc(C)c1-c1nccc(Nc2ccc(F)cc2)n1 for me? inactive

Tell me the assay call for O=c1c(-c2ccccc2)nc2cnc(N3CCOCC3)nc2n1C[C@H]1CCCO1 please. inactive

###

assay: qHTS Assay for Lipid Storage Modulators (AID 1519); conditions: Drosophila S3 cells, BODIPY lipid droplet/cell ratio, laser cytometry; measured here: cell count channel max response; cells loaded with oleic acid
Results filed as inconclusive are left out.
experimental_endpoint: max response (%)
Field: numeric (%). Do not append units.

State its max response: c1ccc2c(Nc3ccncc3)nc(-c3ccoc3)nc2c1 5.31

Name the recorded max response of the item C[C@@H]1CCC[C@H](C)N1NC(=O)c1ccc(Cl)c(S(N)(=O)=O)c1 in your answer. 17.3

Read off the recorded max response for O=C(c1ccncc1)N1CCC2(CCN(Cc3nccs3)CC2)CC1 5.19

Identify measured max response associated with O=C(Nc1cccc(F)c1)N1CC2(CCN(C(=O)c3cccc(F)c3)CC2)C1 1.76

Could you please provide reported max response for O=C(c1cnccn1)N1CCC2(CCN(Cc3ccccc3)CC2)CC1 ? Thanks! 7.12

Please give measured max response of the following entry: CC[C@@]12CCCN3CCc4c(n(c5ccccc45)C(=O)C1)[C@H]32 -16.7

Output measured max response for this item: COc1ccccc1CN1CCCC2(CCN(S(=O)(=O)c3ccccc3)CC2)C1 -4.49

Output max response of CC(=O)N1CCC2(CCCN(C(=O)Nc3cccc(C#N)c3)C2)CC1 12.8

###

target: Cytochrome P450 1A2 (Homo sapiens); assay: p450-cyp1a2 (AID 410); conditions: recombinant CYP1A2, luciferin-ME demethylation, luminescence; series mostly up to 57 µM
Inconclusive results are not listed. The source made the active and inactive calls. Calls follow the shape of the full dose curve.
Your response should consist of one outcome taken from True = active, False = inactive

Before answering, review these 9 worked examples.
Any idea what this test logged for COc1cccc(Cn2c(=O)c(-c3cc(F)cc(F)c3)nc3cnc(N4CCNCC4)nc32)c1 ? False

Per the assay record, what outcome was assigned to COc1ccccc1-c1cncnc1NCc1cccs1 ? True

Would you mind telling me which call this test gave COc1ccc(-n2c(=O)cnc3cnc(Oc4cccc(Cl)c4)nc32)cc1 ? True

Please state the recorded outcome for this molecule: Cc1cnc(CNc2ncncc2-c2ccccc2Cl)cn1 True

Answer briefly: the call reported for COCC(=O)N1CCC2(CC1)CN(Cc1ccccc1OC)C2 in this assay. False

I would be grateful if you could indicate the recorded call for Cc1ccccc1-c1nc(-n2ccnc2)c2ccccc2n1 . True

# lookup: test call for CN(C)c1ncc2nc(-c3ccccc3)c(=O)n(CCC#N)c2n1 True

Per the assay record, what outcome was assigned to CN(C)Cc1ccccc1-c1cncnc1NC1CC1 ? True

In this assay, the call recorded for COc1cc2c3cc1Oc1c(OC)c(OC)cc4c1[C@@H](Cc1ccc(O)c(c1)Oc1ccc(cc1)C[C@@H]3N(C)CC2)N(C)CC4 was what? False

Now for a further molecule.
Called result for FC(F)(F)c1ccccc1-c1cncnc1NCc1cccs1 True
